target: Cytochrome P450 2C18 (Homo sapiens, UniProt P33260); assay: Inhibitory effect on human recombinant liver cytochrome P450 2C18 expressed in yeast strain
Sequence (P33260 whole entry): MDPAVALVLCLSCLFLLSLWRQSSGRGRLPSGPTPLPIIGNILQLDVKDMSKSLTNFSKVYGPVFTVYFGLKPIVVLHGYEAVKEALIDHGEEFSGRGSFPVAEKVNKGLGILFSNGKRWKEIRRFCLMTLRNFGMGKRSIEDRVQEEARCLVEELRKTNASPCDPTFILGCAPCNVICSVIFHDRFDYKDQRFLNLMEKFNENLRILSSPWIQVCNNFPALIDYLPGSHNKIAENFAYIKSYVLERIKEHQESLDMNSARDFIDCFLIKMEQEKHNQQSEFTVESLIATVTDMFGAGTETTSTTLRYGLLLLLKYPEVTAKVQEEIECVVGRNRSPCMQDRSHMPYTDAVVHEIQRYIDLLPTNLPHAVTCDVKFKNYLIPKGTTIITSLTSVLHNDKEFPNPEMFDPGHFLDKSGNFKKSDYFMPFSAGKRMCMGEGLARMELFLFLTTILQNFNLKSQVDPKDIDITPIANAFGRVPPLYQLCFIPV
experimental readout: IC50 (µM)

Here is how some compounds turned out for IC50.
Query: Item NCCc1ccc(S(=O)(=O)N(CCCO)c2ccnn2-c2ccccc2)cc1 has what recorded IC50?
Reply: 65

Query: Item Cc1ccc(S(=O)(=O)N(C)c2ccnn2-c2ccccc2)cc1 has what recorded IC50?
Reply: 12

Query: Item O=[N+]([O-])c1cccc(-c2ccc(S(=O)(=O)N(CCCCO)c3ccnn3-c3ccccc3)cc2)c1 has what recorded IC50?
Reply: 4

Query: Item CCN(c1ccnn1-c1ccccc1)S(=O)(=O)c1ccc(N)cc1 has what recorded IC50?
Reply: 7

Query: Item CC(C)N(c1ccnn1-c1ccccc1)S(=O)(=O)c1ccc(N)cc1 has what recorded IC50?
Reply: 3

a. C=CCc1ccc(S(=O)(=O)Nc2ccnn2-c2ccccc2)cc1
b. Nc1cccc(-c2ccc(S(=O)(=O)Nc3ccnn3-c3ccccc3)cc2)c1
Query: Looking at a and b , which one comes out lower in IC50 terms? Write down the label of the entry you select.
Reply: b

----------
biological target: Cytochrome P450 2C19 (Homo sapiens, UniProt P33261); test: Inhibitory effect on human recombinant liver cytochrome P450 2C19 expressed in yeast strain
Sequence (P33261 whole entry): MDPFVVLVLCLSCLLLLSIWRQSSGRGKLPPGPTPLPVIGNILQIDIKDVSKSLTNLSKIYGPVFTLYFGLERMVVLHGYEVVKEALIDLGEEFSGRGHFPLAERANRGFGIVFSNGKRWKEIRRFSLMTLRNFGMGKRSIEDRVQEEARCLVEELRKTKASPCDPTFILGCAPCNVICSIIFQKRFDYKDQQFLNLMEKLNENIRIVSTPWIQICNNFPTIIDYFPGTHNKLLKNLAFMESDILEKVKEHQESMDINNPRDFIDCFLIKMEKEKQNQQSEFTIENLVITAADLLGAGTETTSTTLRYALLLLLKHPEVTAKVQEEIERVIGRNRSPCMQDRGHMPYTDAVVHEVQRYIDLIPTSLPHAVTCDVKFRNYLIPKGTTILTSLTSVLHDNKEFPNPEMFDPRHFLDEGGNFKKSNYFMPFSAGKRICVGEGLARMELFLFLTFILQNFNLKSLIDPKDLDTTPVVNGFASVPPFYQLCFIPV
experimental readout: IC50 (µM)

Query: Item CCCCN(c1ccnn1-c1ccccc1)S(=O)(=O)c1ccc(N)cc1 has what recorded IC50?
Reply: 60

Query: Item CC(C)N(c1ccnn1-c1ccccc1)S(=O)(=O)c1ccc(N)cc1 has what recorded IC50?
Reply: 130

Query: Item O=[N+]([O-])c1cccc(-c2ccc(S(=O)(=O)N(CCO)c3ccnn3-c3ccccc3)cc2)c1 has what recorded IC50?
Reply: 165

Query: Item CCCN(c1ccnn1-c1ccccc1)S(=O)(=O)c1ccc(N)cc1 has what recorded IC50?
Reply: 250

Query: Item CN(c1ccnn1-c1ccccc1)S(=O)(=O)c1ccc(N)cc1 has what recorded IC50?
Reply: 200

Query: Item Nc1ccc(S(=O)(=O)N(Cc2ccccc2)c2ccnn2-c2ccccc2)cc1 has what recorded IC50?
Reply: 45

1. C=CCc1ccc(S(=O)(=O)N(C)c2ccnn2-c2ccccc2)cc1
2. C=CCc1ccc(S(=O)(=O)Nc2ccnn2-c2ccccc2)cc1
3. CCN(c1ccnn1-c1ccccc1)S(=O)(=O)c1ccc(N)cc1
Query: Sort ascending by IC50. Labels, ranked as asked.
Reply: 1, 3, 2
(1: 20 µM, 3: 225 µM, 2: 450 µM)

a. Cc1ccc(S(=O)(=O)N(C)c2ccnn2-c2ccccc2)cc1
b. CCCN(c1ccnn1-c1ccccc1)S(=O)(=O)c1ccc(C)cc1
Query: Which has the higher IC50, a or b ? Write down the label of the entry you select.
Reply: a

----------
Target: UniProtKB P10632
Sequence (P10632 whole entry): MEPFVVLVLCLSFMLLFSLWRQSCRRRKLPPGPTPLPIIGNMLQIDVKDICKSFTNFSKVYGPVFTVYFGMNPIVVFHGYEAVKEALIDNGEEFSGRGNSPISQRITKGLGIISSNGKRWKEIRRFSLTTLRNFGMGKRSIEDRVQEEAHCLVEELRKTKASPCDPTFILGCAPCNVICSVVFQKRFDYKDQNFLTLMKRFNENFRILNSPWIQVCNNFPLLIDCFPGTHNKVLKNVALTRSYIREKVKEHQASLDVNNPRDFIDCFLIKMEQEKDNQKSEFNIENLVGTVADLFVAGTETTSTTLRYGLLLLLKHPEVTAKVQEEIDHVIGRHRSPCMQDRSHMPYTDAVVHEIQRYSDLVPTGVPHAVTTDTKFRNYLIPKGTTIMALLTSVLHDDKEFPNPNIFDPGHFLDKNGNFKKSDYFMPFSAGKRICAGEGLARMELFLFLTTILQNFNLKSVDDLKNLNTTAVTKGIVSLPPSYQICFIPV
Experiment: Inhibitory effect on human recombinant liver Cytochrome P450 2C8 expressed in yeast strain
experimental readout: IC50 (µM)

Here is how some compounds turned out for IC50.
Query: Enter reported IC50 observed with UniProtKB P10632 for Nc1cccc(-c2ccc(S(=O)(=O)Nc3ccnn3-c3ccccc3)cc2)c1
Reply: 8

Query: Enter reported IC50 observed with UniProtKB P10632 for C=CCc1ccc(S(=O)(=O)N(C)c2ccnn2-c2ccccc2)cc1
Reply: 20

Query: Enter reported IC50 observed with UniProtKB P10632 for CCCN(c1ccnn1-c1ccccc1)S(=O)(=O)c1ccc(N)cc1
Reply: 8

Query: Enter reported IC50 observed with UniProtKB P10632 for Cc1ccc(S(=O)(=O)N(C)c2ccnn2-c2ccccc2)cc1
Reply: 180

1. C=CCc1ccc(S(=O)(=O)Nc2ccnn2-c2ccccc2)cc1
2. Nc1ccc(S(=O)(=O)N(Cc2ccccc2)c2ccnn2-c2ccccc2)cc1
Query: Looking at 1 and 2 , which one comes out lower in IC50 terms? Write down the label of the entry you select.
Reply: 1
(1: 10 µM, 2: 15 µM)
